Test system: PAK3
cond: concentration: 1 μM,replicates: in singlicate; n = 1;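 note: KINOMEscan kinase panel screen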
For each entry below, report its %Inh value.
Provide the reading as a plain figure in %.

So, `Cc1ccc2c(-c3ccnc(Nc4ccc(C(F)(F)F)cc4)n3)cnn2n1` ? Its %Inh was 18

So, CCNCC(Cc1ccccc1)NC(=O)c1cc(Br)c(-c2ccnc3[nH]ccc23)s1.Cl.Cl (centres unmarked) ? Its %Inh was 62

So, CS(=O)c1ccc(-c2coc3ccc(-c4n[nH]c(=O)o4)cc23)cc1 (centres unmarked) ? Its %Inh was 18

So, `CC(=O)c1c(-c2ccncc2)[nH]c(-c2ccncc2)c1C` ? Its %Inh was 20

So, `Cn1ccc2ncnc(Oc3ccc(NC(=O)Nc4cccc(C(F)(F)F)c4)c(F)c3)c21` ? Its %Inh was 0

* * *

Tested on: GSK3B
cond: concentration: 1 μM,replicates: in singlicate; n = 1
For each entry below, report its %Inh value.
Provide the reading as a plain figure in %.

So, CCn1c(-c2nonc2N)nc2cncc(CNC3CCNCC3)c21.Cl [SB-747651] ? Its %Inh was 24

So, `CN(c1ccccc1CNc1nc(Nc2ccc3c(c2)CC(=O)N3)ncc1C(F)(F)F)S(C)(=O)=O` ? Its %Inh was 0

So, COc1cccc(CNC(=O)NC2CCN(c3ccnc(Nc4cc(OC)c(OC)c(OC)c4)n3)C2)c1 (centres unmarked) [GSK1379765] ? Its %Inh was 7

So, CNC(=O)c1ccccc1Nc1nc(Nc2cccc(CS(C)(=O)=O)c2)ncc1C.O=CO [GSK1520489] ? Its %Inh was 34

So, `Cn1ccc2ncnc(Oc3ccc(NC(=O)Nc4cc(C(C)(C)C)on4)c(Cl)c3)c21` ? Its %Inh was 0

So, Cc1ccn2nc(-c3ccc(F)cc3)c(-c3ccncc3)c2c1.Cl [GW457859] ? Its %Inh was 0

So, `CS(=O)(=O)c1cccc(CNc2nc(Nc3ccc4c(c3)[C@@H]3C[C@@H]4CNC3=O)ncc2C(F)(F)F)c1` ? Its %Inh was 0

So, Cc1n[nH]c2cc(Nc3ccnc(Nc4cccc(CN5CCOCC5)c4)n3)ccc12 [GW682569] ? Its %Inh was 15

* * *

For each entry below, report its %Inh value.
Test system: CDK2
cond: concentration: 1 μM,replicates: in singlicate; n = 1
Provide the reading as a plain figure in %.

Given the compound `CCn1c(-c2nonc2N)nc2cncc(Br)c21` and test system CDK2, the measured %Inh is 1

Given the compound `CS(=O)(=O)Nc1ccc(-c2ccnc3[nH]ccc23)cc1` and test system CDK2, the measured %Inh is 0

Given the compound `Cn1ccc2ncnc(Oc3ccc(NC(=O)Nc4cnn(C(C)(C)C)c4)c(Cl)c3)c21` and test system CDK2, the measured %Inh is 0

Given the compound `Cl.Nc1n[nH]c2cc(-c3ccccn3)ccc12` and test system CDK2, the measured %Inh is 0

Given the compound `CN(c1ccccc1CNc1nc(Nc2ccc3c(c2)CC(=O)N3)ncc1C(F)(F)F)S(C)(=O)=O` and test system CDK2, the measured %Inh is 58

* * *

For each entry below, report its %Inh value.
System: MUSK
cond: concentration: 1 μM,replicates: in singlicate; n = 1
Provide the reading as a plain figure in %.

So, `CN1CCN(CCCNc2nccc(-c3c(-c4ccc(F)cc4)nn4cc(C(N)=O)ccc34)n2)CC1` ? Its %Inh was 6

So, `COC(=O)Nc1nc2cc(Oc3ccc(NC(=O)Nc4cc(C(F)(F)F)ccc4Cl)cc3)ccc2[nH]1.Cl` ? Its %Inh was 99.2

So, `Cc1cccc(-c2nc(Nc3ccncc3)c3sccc3n2)n1` ? Its %Inh was 0

So, `CN(c1cccc(CNc2nc(Nc3ccc4c(c3)CC(=O)N4)ncc2C(F)(F)F)c1)S(C)(=O)=O` ? Its %Inh was 58

So, N#Cc1cccc(C(=O)NC2CCN(c3ccnc(Nc4ccc(F)cc4)n3)C2)c1 (centres unmarked) ? Its %Inh was 0

So, `Cc1ccn2nc(-c3ccc(F)cc3)c(-c3ccncc3)c2c1.Cl` ? Its %Inh was 0

So, `COc1cc2nccc(Nc3ccc(Oc4ccccc4)cc3)c2cc1OC.Cl` ? Its %Inh was 0

So, `Cc1n[nH]c2cc(Nc3ccnc(Nc4cccc(CN5CCOCC5)c4)n3)ccc12` ? Its %Inh was 15

So, `O=C(Nc1ccc(Oc2ccc3nc(NC(=O)C4CC4)cn3n2)c(F)c1)c1cccn(-c2ccccc2)c1=O` ? Its %Inh was 99.5

So, `Cn1ccc2ncnc(Oc3ccc(NC(=O)Nc4cc(C(C)(C)C)on4)c(Cl)c3)c21` ? Its %Inh was 80

So, `CS(=O)(=O)c1cccc(CNc2nc(Nc3ccc4c(c3)[C@@H]3C[C@@H]4CNC3=O)ncc2C(F)(F)F)c1` ? Its %Inh was 26

So, `Cn1ccc2ncnc(Oc3ccc(NC(=O)Nc4ccnc(C(F)(F)F)c4)c(Cl)c3)c21` ? Its %Inh was 42

So, `C[C@@H]1CNc2c(sc3ccc4nc(-c5ccncc5)ccc4c23)C(=O)N1` ? Its %Inh was 0

So, `CCN1CCN(CCCC(=O)Nc2n[nH]c3nc(-c4ccc(O)cc4)c(Br)cc23)CC1` ? Its %Inh was 0

So, `COc1cccc(C2=C(Nc3cccc(Cl)c3)C(=O)NC2=O)c1` ? Its %Inh was 9

So, `O=C(NOCC1CC1)c1cc(Br)c(F)c(F)c1Nc1ccc(I)cc1Cl` ? Its %Inh was 9

So, `COC(=O)c1cccc(NC(=O)NC2CCN(c3ccnc(NCc4ccc(F)cc4)n3)CC2)c1` ? Its %Inh was 0
